# TEST SYSTEM: T1, IFN-α4a (human, UniProt P05014 24-189)
# T1 construct: also called IFN-αM1
# EXPERIMENT: ProteOn, one antigen concentration
Here the recorded Kd is given for each entry.
Kindly provide the numeric value in pM only, without the unit symbol.

| BINDER | RECORDED ENDPOINT | REPORTED |
| --- | --- | --- |
| IFWM3321 (antibody, V domains shown, VH IFWH591, VL IFWL1048; converted mAb; also called IFWB3056) VH: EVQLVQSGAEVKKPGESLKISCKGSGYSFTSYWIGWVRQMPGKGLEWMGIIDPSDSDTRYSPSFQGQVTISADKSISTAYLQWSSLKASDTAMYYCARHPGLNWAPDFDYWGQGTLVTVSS VL: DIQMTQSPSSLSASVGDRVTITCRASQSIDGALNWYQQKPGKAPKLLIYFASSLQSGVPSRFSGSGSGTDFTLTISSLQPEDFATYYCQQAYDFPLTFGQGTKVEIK | Kd | 159 |
| IFWM3344 (antibody, V domains shown, VH IFWH624, VL IFWL998; converted mAb; also called IFWB3079) VH: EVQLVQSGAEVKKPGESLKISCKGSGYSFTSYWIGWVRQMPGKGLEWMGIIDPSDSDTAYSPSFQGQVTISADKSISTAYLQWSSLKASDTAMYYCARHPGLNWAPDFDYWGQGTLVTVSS VL: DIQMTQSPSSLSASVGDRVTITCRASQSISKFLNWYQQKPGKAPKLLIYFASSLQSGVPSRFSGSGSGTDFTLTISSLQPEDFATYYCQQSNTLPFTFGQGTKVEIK | Kd | 442 |

Let us examine a further case.
Kindly indicate its recorded Kd. Item: IFWM3332 (antibody, V domains shown, VH IFWH591, VL IFWL1074; converted mAb; also called IFWB3067) VH: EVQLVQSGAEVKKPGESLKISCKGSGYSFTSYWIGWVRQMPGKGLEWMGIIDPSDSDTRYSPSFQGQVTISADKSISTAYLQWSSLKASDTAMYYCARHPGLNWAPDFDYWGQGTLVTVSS VL: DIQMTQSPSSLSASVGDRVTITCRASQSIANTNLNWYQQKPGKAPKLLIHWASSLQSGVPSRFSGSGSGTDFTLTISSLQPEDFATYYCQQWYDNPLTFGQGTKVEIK
139
